- target system: the molecule itself
- experiment notes: cryo-EM structure; mature T5 virions (fiberless mutant) purified by CsCl gradients, in buffer A (100 mM NaCl, 1 mM MgSO4, 1 mM CaCl2, 10 mM Tris-HCl, pH 7.6); icosahedral, symmetry-mismatch and local reconstructions of head, portal, connector, tail tube and tail tip
For each of the proteins below, state its stoichiometry N.

Known results for proteins:
INSERT INTO measurements (protein, value_observed) VALUES
  ('p140 (natural protein, bacteriophage T5, tail tip complex protein p140 of bacteriophage T5) MFYSLMRESKIVIEYDGRGYHFDALSNYDASTSFQEFKTLRRTIHNRTNYADSIINAQDPSSISLAINFSTTLIESNFFDWMGFTREGNSLFLPRNTPNIEPIMFNMYIINHNNSCIYFENCYVSTVDFSLDKSIPILNVGIESGKFSEVSTFRDGYTITQGEVLPYSAPAVYTNSSPLPALISASMSFQQQCSWREDRNIFDINKIYTNKRAYVNEMNASATLAFYYVKRLVGDKFLNLDPETRTPLIIKNKYVSITFPLARISKRLNFSDLYQVEYDVIPTADSDPVEINFFGERK', 3),
  ('distal tail protein pb9 (natural protein, bacteriophage T5, distal tail protein pb9 of bacteriophage T5) MRLPDPYTNPEYPGLGFESVNLVDNDPMIRDELPNGKVKEVKISAQYWGINISYPELFPDEYAFLDSRLLEYKRTGDYLDVLLPQYEAFRVRGDTKSVTIPAGQKGSQIILNTNGTLTGQPKAGDLFKLSTHPKVYKITNFSSSGNVWNISLYPDLFITTTGSEKPVFNGILFRTKLMNGDSFGSTLNNNGTYSGISLSLRESL', 6),
  ('portal protein pb7 (natural protein, bacteriophage T5, portal protein pb7 of bacteriophage T5, 403 residues in total; atomic model built for residues 11-377; source: also in virions treated with 4 M urea for 2 h at 37 °C and dialyzed; copies: 12) LNPGQRIIRDMEPVSHRTNRKPFTTGQAYSKIEILNRTANMVIDSAAECSYTVGDKYNIVTYANGVKTKTLDTLLNVRPNPFMDISTFRRLVVTDLLFEGCAYIYWDGTSLYHVPAALMQVEADANKFIKKFIFNNQINYRVDEIIFIKDNSYVCGTNSQISGQSRVATVIDSLEKRSKMLNFKEKFLDNGTVIGLILETDEILNKKLRERKQEELQLDYNPSTGQSSVLILDGGMKAKPYSQISSFKDLDFKEDIEGFNKSICLAFGVPQVLLDGGNNANIRPNIELFYYMTIIPMLNKLTSSLTFFFGYKITPNTKEVAALTPDKEAEAKHLTSLVNNGIITGNEARSELNLEPLDDEQMNKIRIPANVAGSATGVSGQEGGRPKGSTEGD', 12);

# context switch: different protein, same stoichiometry N
q: For the protein major capsid protein (MCP) pb8 (natural protein, bacteriophage T5, UniProt Q6QGD8 160-458, looked up, major capsid protein pb8 of bacteriophage T5, 458 residues; atomic model built for residues 164-457; also called MCP gp8; gp8) AVNQSSSVEVSSESYETIFSQRIIRDLQKELVVGALFEELPMSSKILTMLVEPDAGKATWVAASTYGTDTTTGEEVKGALKEIHFSTYKLAAKSFITDETEEDAIFSLLPLLRKRLIEAHAVSIEEAFMTGDGSGKPKGLLTLASEDSAKVVTEAKADGSVLVTAKTISKLRRKLGRHGLKLSKLVLIVSMDAYYDLLEDEEWQDVAQVGNDSVKLQGQVGRIYGLPVVVSEYFPAKANSAEFAVIVYKDNFVMPRQRAVTVERERQAGKQRDAYYVTQRVNLQRYFANGVVSGTYAAS , what stoichiometry N is on record?
a: 775
